Give measured Max MFI for each item. Keep answers brief.
- Subject Of Test: human CDH6 with EC5 removed, on HEK293T cells (HEK293T-hCDH6-EC5 deletion) (human) (UniProt P55285)
- Test Description: FACS, HEK293T-hCDH6-EC5 deletion cells
Give bare numbers, in MFI.

# Binder, Max MFI / MFI
measured = [
    ("CHI-CDH6-4 (antibody, human IgG1, kappa, V domains shown) VH: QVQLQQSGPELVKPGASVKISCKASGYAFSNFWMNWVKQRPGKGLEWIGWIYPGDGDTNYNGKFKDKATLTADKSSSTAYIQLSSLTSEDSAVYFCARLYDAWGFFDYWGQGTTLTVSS VL: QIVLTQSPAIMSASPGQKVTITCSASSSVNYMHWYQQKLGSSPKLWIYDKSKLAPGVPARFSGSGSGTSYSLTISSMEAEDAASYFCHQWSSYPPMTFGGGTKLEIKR", 6540),
    ("DS-H01L02 (antibody, human IgG1, kappa, V domains shown) VH: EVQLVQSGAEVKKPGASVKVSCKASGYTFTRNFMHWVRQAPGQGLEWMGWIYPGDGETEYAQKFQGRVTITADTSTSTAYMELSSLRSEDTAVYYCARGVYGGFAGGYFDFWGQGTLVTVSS VL: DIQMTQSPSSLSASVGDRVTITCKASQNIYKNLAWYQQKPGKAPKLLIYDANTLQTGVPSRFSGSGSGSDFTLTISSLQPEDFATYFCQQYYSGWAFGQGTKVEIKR", 1530),
]

API: the following record is the query input.
Entry CHI-CDH6-5 (antibody, human IgG1, kappa, V domains shown) VH: QVQLQQSGAELVRPGTSVKMSCKAAEYTFTNYWIGWVKQRPGHGLEWIGDLYPGGDHANYNEKFEGKATLTADTSSSTAYMQLSSLTSEDSAIYYCARGMLTTGFDSWGQGTTLTVSS VL: DIVMSQSPSSLAVSAGEKVTMSCKSSQSLFNSRTRKNYLAWYQQKPGQSPKLLIYWASTRESGVPDRFTGSGSGTDFTLTISSVQAEDLAVYYCKQSYYLRTFGGGTKLEIKR has what Max MFI?
4240

Data origin, for the record: patent EP4663661A1
